assay: PK characteristics in humans (plasma, LC/MS/MS); type: in vivo, human; settings: human, plasma, oral, 120 mg, Day 1, 120 mg, n=3, mean; read-out: Cmax
readout-label: Cmax

smiles_notation=Nc1cc(C(F)(F)F)c(-c2nc(N3CCOCC3)c3nc(-c4cccc(NS(=O)(=O)CCCF)c4F)ccc3n2)cn1 readout_label=Cmax result="509 ng/mL"

---

experiment: PK characteristics in humans (plasma, LC/MS/MS); assay type: in vivo, human; details: human, plasma, oral, 120 mg, Day 15, 120 mg, n=3, mean; read-out: T1/2 (converted)
readout-label: half-life

compound="Nc1cc(C(F)(F)F)c(-c2nc(N3CCOCC3)c3nc(-c4cccc(NS(=O)(=O)CCCF)c4F)ccc3n2)cn1 [CMPD A]" result="24.1 h"
